Each entry below carries its recorded IC50.
system: MDA-MB-231 breast cancer cells; assay: Anti-proliferative activity, cell-titre luminescent viability assay; type: cell-based; details: Homo sapiens, 72 hours exposure
The number alone won't do; follow it with the unit.

| compound-smiles | IC50 |
| --- | --- |
| CCN(CC)CCCn1c2ccccc2c2cc(C(=O)N3CCN(CCc4cccc(F)c4)CC3)ccc21 | 4.2 µM |
| CCN(CC)CCCn1c2ccccc2c2cc(C(=O)N3CCN(CCc4ccccc4)CC3)ccc21 | 3.1 µM |
| CCN(CC)CCCn1c2ccccc2c2cc(C(=O)N3CCN(CCc4ccc5c(c4)OCO5)CC3)ccc21 | 4.5 µM |
| CN(C)CCCn1c2ccccc2c2cc(C(=O)N3CCN(CCc4cccc(F)c4)CC3)ccc21 | 4.1 µM |
| CCN(CC)CCCn1c2ccccc2c2cc(C(=O)N3CCN(CCc4ccc(OC)cc4)CC3)ccc21 | 3.5 µM |

Find IC50 (MDA-MB-231 breast cancer cells) for the entry `CN(C)CCCn1c2ccccc2c2cc(C(=O)N3CCN(CCc4ccccc4)CC3)ccc21` 4.4 µM

* * *

Each entry below carries its recorded pIC50.
system: A549 lung (NSLC) cancer cells; experiment: Anti-proliferative activity, cell-titre luminescent viability assay; format: cell-based; settings: Homo sapiens, 72 hours exposure
Scale note: pIC50 = -log10(concentration in M).

| compound-smiles | pIC50 |
| --- | --- |
| O=C(c1ccc2[nH]c3ccccc3c2c1)N1CCN(CCc2ccc(F)cc2)CC1 | 4.79 |
| COc1cccc(CCN2CCN(C(=O)c3ccc4c(c3)c3ccccc3n4CCCN3CCN(C)CC3)CC2)c1 | 5.44 |
| CN1CCN(CCCn2c3ccccc3c3cc(C(=O)N4CCN(CCc5ccc6c(c5)OCO6)CC4)ccc32)CC1 | 5.40 |
| CCN(CC)CCCn1c2ccccc2c2cc(C(=O)N3CCN(CCc4ccc(OC)cc4)CC3)ccc21 | 5.42 |
| CN1CCN(CCCn2c3ccccc3c3cc(C(=O)N4CCN(CCc5cccc(F)c5)CC4)ccc32)CC1 | 5.52 |
| CN(C)CCCn1c2ccccc2c2cc(C(=O)N3CCN(CCc4ccc(F)cc4)CC3)ccc21 | 5.47 |
| CN(C)CCCn1c2ccccc2c2cc(C(=O)N3CCN(CCc4ccccc4)CC3)ccc21 | 5.07 |
| COc1ccc(CCN2CCN(C(=O)c3ccc4c(c3)c3ccccc3n4CCCN(C)C)CC2)cc1 | 5.47 |
| CCN(CC)CCCn1c2ccccc2c2cc(C(=O)N3CCN(CCc4ccc(F)cc4)CC3)ccc21 | 5.72 |
| CN(C)CCCn1c2ccccc2c2cc(C(=O)N3CCN(CCc4ccc5c(c4)OCO5)CC3)ccc21 | 5.47 |

Would you kindly share the measured pIC50 for `CCN(CC)CCCn1c2ccccc2c2cc(C(=O)N3CCN(CCc4ccccc4)CC3)ccc21` ? 5.49

Query `COc1ccc(CCN2CCN(C(=O)c3ccc4c(c3)c3ccccc3n4CCCN3CCN(C)CC3)CC2)cc1` next 4.51

Query `COc1cccc(CCN2CCN(C(=O)c3ccc4c(c3)c3ccccc3n4CCCN(C)C)CC2)c1` next 5.46

Query `CCN(CC)CCCn1c2ccccc2c2cc(C(=O)N3CCN(CCc4cccc(OC)c4)CC3)ccc21` next 5.42

* * *

tested on: A549 lung (NSLC) cancer cells; experiment: Anti-proliferative activity, cell-titre luminescent viability assay; format: cell-based; conditions: Homo sapiens, 72 hours exposure
readout-name: pIC50
Scale note: pIC50 = -log10(concentration in M).

Illustrative cases are given below, each with its answer.
| compound-smiles | pIC50 |
| --- | --- |
| CN(C)CCCn1c2ccccc2c2cc(C(=O)N3CCN(CCc4cccc(F)c4)CC3)ccc21 | 5.46 |
| CN1CCN(CCCn2c3ccccc3c3cc(C(=O)N4CCN(CCc5ccccc5)CC4)ccc32)CC1 | 5.70 |
| CCN(CC)CCCn1c2ccccc2c2cc(C(=O)N3CCN(CCc4cccc(F)c4)CC3)ccc21 | 5.44 |
| CCN(CC)CCCn1c2ccccc2c2cc(C(=O)N3CCN(CCc4ccc5c(c4)OCO5)CC3)ccc21 | 5.40 |

Find pIC50 (A549 lung (NSLC) cancer cells) for the entry `CN1CCN(CCCn2c3ccccc3c3cc(C(=O)N4CCN(CCc5ccc(F)cc5)CC4)ccc32)CC1` 5.43
